Source: paper PMC5726764

Biological target: scFv-2 (120_15439_2), de novo designed single-chain antibody
Assay: BLI
metric.name: Kd (nM)
Answer format: numeric, nM implied, no suffix.

INPUT: Can you look up the measured Kd of DVFYPYPYASGS [dodecapeptide antigen … (as used in biolayer interferometry)] for me?
OUTPUT: 2.55
